Source of measurements: BigSolDB 2.1

settings: in n-butanol, 293.15 K
Measured Quantity: solubility (mole fraction)
One number for each entry.

Task: Which solubility (mole fraction) value belongs to C=CC(=O)N1CCC[C@@H](n2nc(-c3ccc(Oc4ccccc4)cc3)c3c(N)ncnc32)C1 ?
Result: 0.00261

----------
settings: in MTBE, 323.15 K
Measured Quantity: solubility (mole fraction)

Task: Which solubility (mole fraction) value belongs to C=CC(=O)N1CCC[C@@H](n2nc(-c3ccc(Oc4ccccc4)cc3)c3c(N)ncnc32)C1 ?
Result: 0.00056

----------
conditions: in ethyl acetate, 308.15 K
Measured Quantity: solubility (mole fraction)

Task: Which solubility (mole fraction) value belongs to C=CC(=O)N1CCC[C@@H](n2nc(-c3ccc(Oc4ccccc4)cc3)c3c(N)ncnc32)C1 ?
Result: 0.00722
